Data credit: PubChem BioAssay (NCI)

- Tested on: HOP-62 NSCLC
- procedure_text: NCI-60 one-dose screen, 48 h (100 = growth as untreated, 0 = no growth, -100 = all killed)
- experimental_parameters: 10 µM unless noted
About 83,000 compounds went through this panel and 20% of them were active in at least one assay; those are over-represented in the sample as a whole.
We begin with a simple list: items and their reported growth.
Respond numerically; units are % and should not be typed.

Here are 5 compounds together with their reported answers.
[[record]]
molecular_string = "O=C(COc1ccc(/C=C2\\C(=O)Nc3ccc(F)cc32)cc1)Nc1ccccc1"
tested_on = "HOP-62 NSCLC"
quantity_measured = "growth"
val = 99.5

[[record]]
molecular_string = "O=C1[C@@H]2Cc3c([nH]c4ccccc34)[C@@H](c3ccc(Cl)cc3)N2C(=O)CN1C1CCN(Cc2c(F)cccc2F)CC1"
tested_on = "HOP-62 NSCLC"
quantity_measured = "growth"
val = 54.1

[[record]]
molecular_string = "CN1CCN(Cc2ccc(NC(=O)c3cncc(C#Cc4cnc5ccc(N6CCOCC6)nn45)c3)cc2C(F)(F)F)CC1"
tested_on = "HOP-62 NSCLC"
quantity_measured = "growth"
val = -79.7

[[record]]
molecular_string = "CN1CCN(c2ccc(C(=O)/C=C/c3cc(F)cc(C(F)(F)F)c3)cc2)CC1"
tested_on = "HOP-62 NSCLC"
quantity_measured = "growth"
val = 93.1

[[record]]
molecular_string = "COc1ccc(-c2cc(-c3ccc(N(C)C)cc3)n3c(n2)nc2ccccc23)cc1"
tested_on = "HOP-62 NSCLC"
quantity_measured = "growth"
val = 77.9


Query: Fill blank: measured growth of the compound Cc1ccc2c(n1)C(=O)C(Cl)=C(Nc1cccc(C)c1C)C2=O is ____.
Reply: -0.0437

Query: Fill blank: measured growth of the compound CCNC(=O)Oc1ccc(/C(=C(/C)c2ccc(Cl)cc2)c2ccc(OCCN3CCCCCC3)cc2)cc1 is ____.
Reply: -19.9

Query: Fill blank: measured growth of the compound Cc1ccc(S(=O)(=O)c2nc(-c3ccc(F)cc3)oc2S(C)(=O)=O)cc1 is ____.
Reply: 99.8
